Origin of the recorded values: paper PMC12646587

- System: hiPSC-CMs
- testMethodNotes: Conventional MEA recording (16-electrode Axion Maestro), acute exposure
- Format: cell-based, human
- experimentalParameters: acute
measurementType: field potential (spike) amplitude

>>> df
                                   compound     endpointvalue
0  CN1CCN(CCCCN2C(=O)CN(/N=C/c3ccc(-c4ccc(Cl)cc4)o3)C2=O)CC1 [Azimilide]  decreasing trend
1  COc1ccc(CCN(C)CCCC(C#N)(c2ccc(OC)c(OC)c2)C(C)C)cc1OC (centres unmarked)  decreasing trend

====

- System: human iPSC-derived cardiomyocytes
- testMethodNotes: PCA of beat parameters: cardiotoxicity risk and mechanism classification
- Type: cell-based
measurementType: FPI PCA (concentration at which changes were detected) (µM)
One number for each entry, in µM.

Parameter requested: FPI PCA (concentration at which changes were detected). Apply to each item below.
1. Cc1cccc(C)c1OCC(C)N (stereo not shown)
2. CC(C)NCC(O)c1ccc(O)c(O)c1 (stereo not shown)
3. CN1CCN(CCCCN2C(=O)CN(/N=C/c3ccc(-c4ccc(Cl)cc4)o3)C2=O)CC1 [Azimilide]
4. CC(C)N(CCC(C(N)=O)(c1ccccc1)c1ccccn1)C(C)C (stereo not shown) [Disopyramide]

1
0.01
1
1

====

- System: hiPSC-CMs
- testMethodNotes: Conventional MEA recording (16-electrode Axion Maestro), acute exposure
- Type: cell-based, human
- experimentalParameters: acute
measurementType: IBI

>>> df
                                   compound  endpointvalue
0  COc1ccc(CCN(C)CCCC(C#N)(c2ccc(OC)c(OC)c2)C(C)C)cc1OC (stereo not drawn) [Verapamil]      shortened
1  COc1ccc([C@@H]2Sc3ccccc3N(CCN(C)C)C(=O)[C@@H]2OC(C)=O)cc1 [Diltiazem]      shortened

====

- Test system: human iPSC-derived cardiomyocytes
- testMethodNotes: Field potential imaging (FPI) with UHD-CMOS-MEA, acute drug treatment
- Format: cell-based
- experimentalParameters: changed parameters in brackets in each cell
measurementType: FPI (concentration at which changes were detected)

Solved cases below.
>>> df
                                   molecule                 experimentaltarget                        endpointvalue
0  CC(C)N(CCC(C(N)=O)(c1ccccc1)c1ccccn1)C(C)C (centres unmarked) [Disopyramide]  human iPSC-derived cardiomyocytes                            1 (BR) μM
1  CC(C)NCC(O)c1ccc(O)c(O)c1 (centres unmarked) [Isoproterenol]  human iPSC-derived cardiomyocytes                    0.01 (BR, IBI) μM
2  Cc1cccc(C)c1OCC(C)N (centres unmarked) [Mexiletine]  human iPSC-derived cardiomyocytes  10 (BR, IBI, Ampl. Area, Veloc.) μM

Kindly consider the entry below.
Name the recorded FPI (concentration at which changes were detected) for CN1CCN(CCCCN2C(=O)CN(/N=C/c3ccc(-c4ccc(Cl)cc4)o3)C2=O)CC1 [Azimilide] .
1 (BR, IBI, IBI STV) μM

====

- Test system: hiPSC-CMs
- testMethodNotes: Conventional MEA recording (16-electrode Axion Maestro), acute exposure
- Assay type: cell-based, human
- experimentalParameters: acute
measurementType: beat frequency

                                   molecule  endpointvalue
0  COc1ccc(CCN(C)CCCC(C#N)(c2ccc(OC)c(OC)c2)C(C)C)cc1OC (centres unmarked)      increased
1  COc1ccc([C@@H]2Sc3ccccc3N(CCN(C)C)C(=O)[C@@H]2OC(C)=O)cc1      increased
